Field: shrunken log2 fold change. Provide a value for each of the sequences that follow.
# Test system: Escherichia coli TOP10;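 also: peptides expressed intracellularly from a pBAD plasmid library in pooled LB shake-flask culture, induced with 0.3% L-arabinose, DNA abundance read by NGS, three biological replicates, DESeq2 with apeglm shrinkage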
# assay.summary: shrunken log2 fold change of peptide-encoding DNA abundance (4.5 h post-induction vs induction); higher = less antimicrobial activity (less host growth inhibition)
# settings: time post-induction: 4.5 h; library: site-saturation at positions 5, 18, 19, 20

Ask: Using the record for RRIRQRPPRLPRPRPRPVRCPRP , report its shrunken log2 fold change.
Reply: 0.841

Ask: Using the record for RRIRVRPPRLPRPRPRPDDCPRP , report its shrunken log2 fold change.
Reply: -0.197

Ask: Using the record for RRIRQRPPRLPRPRPRPVYLPRP , report its shrunken log2 fold change.
Reply: -0.206

Ask: Using the record for RRIRTRPPRLPRPRPRPCPDPRP , report its shrunken log2 fold change.
Reply: -0.283

Ask: Using the record for RRIRVRPPRLPRPRPRPRAYPRP , report its shrunken log2 fold change.
Reply: -0.224

Ask: Using the record for RRIRQRPPRLPRPRPRPWGVPRP , report its shrunken log2 fold change.
Reply: 0.122

Ask: Using the record for RRIRVRPPRLPRPRPRPCITPRP , report its shrunken log2 fold change.
Reply: -0.233

Ask: Using the record for RRIRFRPPRLPRPRPRPMVYPRP , report its shrunken log2 fold change.
Reply: -0.389

Ask: Using the record for RRIRQRPPRLPRPRPRPTDVPRP , report its shrunken log2 fold change.
Reply: -0.194

Ask: Using the record for RRIRERPPRLPRPRPRPRVGPRP , report its shrunken log2 fold change.
Reply: 0.33

Ask: Using the record for RRIRYRPPRLPRPRPRPGCKPRP , report its shrunken log2 fold change.
Reply: -0.0843

Ask: Using the record for RRIRERPPRLPRPRPRPFIAPRP , report its shrunken log2 fold change.
Reply: -0.2

Ask: Using the record for RRIRPRPPRLPRPRPRPDALPRP , report its shrunken log2 fold change.
Reply: 0.0315

Ask: Using the record for RRIRKRPPRLPRPRPRPDSPPRP , report its shrunken log2 fold change.
Reply: -0.0585

Ask: Using the record for RRIRNRPPRLPRPRPRPYMMPRP , report its shrunken log2 fold change.
Reply: -0.118

Ask: Using the record for RRIRDRPPRLPRPRPRPLREPRP , report its shrunken log2 fold change.
Reply: 0.714

Ask: Using the record for RRIRDRPPRLPRPRPRPDKQPRP , report its shrunken log2 fold change.
Reply: -0.129

Ask: Using the record for RRIRGRPPRLPRPRPRPDNEPRP , report its shrunken log2 fold change.
Reply: 1.84

Ask: Using the record for RRIRSRPPRLPRPRPRPWTPPRP , report its shrunken log2 fold change.
Reply: -0.154

Ask: Using the record for RRIRMRPPRLPRPRPRPINDPRP , report its shrunken log2 fold change.
Reply: -0.401

Ask: Using the record for RRIRWRPPRLPRPRPRPWAPPRP , report its shrunken log2 fold change.
Reply: 0.479

Ask: Using the record for RRIRRRPPRLPRPRPRPENVPRP , report its shrunken log2 fold change.
Reply: -0.0722

Ask: Using the record for RRIRKRPPRLPRPRPRPGSTPRP , report its shrunken log2 fold change.
Reply: 0.131

Ask: Using the record for RRIRPRPPRLPRPRPRPFTVPRP , report its shrunken log2 fold change.
Reply: 0.0237

Ask: Using the record for RRIRYRPPRLPRPRPRPHQMPRP , report its shrunken log2 fold change.
Reply: -0.0207

Ask: Using the record for RRIRGRPPRLPRPRPRPLTRPRP , report its shrunken log2 fold change.
Reply: 0.803

Ask: Using the record for RRIRDRPPRLPRPRPRPKNYPRP , report its shrunken log2 fold change.
Reply: -0.303

Ask: Using the record for RRIRYRPPRLPRPRPRPPWWPRP , report its shrunken log2 fold change.
Reply: 0.605

Ask: Using the record for RRIRIRPPRLPRPRPRPHRCPRP , report its shrunken log2 fold change.
Reply: -0.0635

Ask: Using the record for RRIRVRPPRLPRPRPRPKEDPRP , report its shrunken log2 fold change.
Reply: 0.0522

Ask: Using the record for RRIRMRPPRLPRPRPRPSDMPRP , report its shrunken log2 fold change.
Reply: 0.0637

Ask: Using the record for RRIRLRPPRLPRPRPRPRREPRP , report its shrunken log2 fold change.
Reply: 0.223

Ask: Using the record for RRIRSRPPRLPRPRPRPLCSPRP , report its shrunken log2 fold change.
Reply: 0.0443

Ask: Using the record for RRIRPRPPRLPRPRPRPTFGPRP , report its shrunken log2 fold change.
Reply: 0.191

Ask: Using the record for RRIRVRPPRLPRPRPRPYACPRP , report its shrunken log2 fold change.
Reply: 0.0114

Ask: Using the record for RRIRERPPRLPRPRPRPMRKPRP , report its shrunken log2 fold change.
Reply: -0.0645

Ask: Using the record for RRIRQRPPRLPRPRPRPWMWPRP , report its shrunken log2 fold change.
Reply: -0.457

Ask: Using the record for RRIRARPPRLPRPRPRPYYEPRP , report its shrunken log2 fold change.
Reply: -1.02

Ask: Using the record for RRIRYRPPRLPRPRPRPGYYPRP , report its shrunken log2 fold change.
Reply: -0.545

Ask: Using the record for RRIRYRPPRLPRPRPRPREVPRP , report its shrunken log2 fold change.
Reply: 0.00495

Ask: Using the record for RRIRPRPPRLPRPRPRPRHMPRP , report its shrunken log2 fold change.
Reply: 0.116

Ask: Using the record for RRIRMRPPRLPRPRPRPGVYPRP , report its shrunken log2 fold change.
Reply: 0.104

Ask: Using the record for RRIRMRPPRLPRPRPRPQDTPRP , report its shrunken log2 fold change.
Reply: -0.0435

Ask: Using the record for RRIRNRPPRLPRPRPRPVHKPRP , report its shrunken log2 fold change.
Reply: -0.182

Ask: Using the record for RRIRVRPPRLPRPRPRPSWVPRP , report its shrunken log2 fold change.
Reply: -0.32

Ask: Using the record for RRIRWRPPRLPRPRPRPRHVPRP , report its shrunken log2 fold change.
Reply: -0.0116

Ask: Using the record for RRIRYRPPRLPRPRPRPKHTPRP , report its shrunken log2 fold change.
Reply: -0.567

Ask: Using the record for RRIRVRPPRLPRPRPRPKIFPRP , report its shrunken log2 fold change.
Reply: -0.00445

Ask: Using the record for RRIRQRPPRLPRPRPRPPTEPRP , report its shrunken log2 fold change.
Reply: -0.153

Ask: Using the record for RRIRQRPPRLPRPRPRPGFAPRP , report its shrunken log2 fold change.
Reply: 0.249

Ask: Using the record for RRIRPRPPRLPRPRPRPKPQPRP , report its shrunken log2 fold change.
Reply: 0.397

Ask: Using the record for RRIRARPPRLPRPRPRPVGAPRP , report its shrunken log2 fold change.
Reply: 0.731

Ask: Using the record for RRIRFRPPRLPRPRPRPDHYPRP , report its shrunken log2 fold change.
Reply: -0.184

Ask: Using the record for RRIRYRPPRLPRPRPRPGCFPRP , report its shrunken log2 fold change.
Reply: -0.349

Ask: Using the record for RRIRDRPPRLPRPRPRPYQMPRP , report its shrunken log2 fold change.
Reply: -0.796

Ask: Using the record for RRIRTRPPRLPRPRPRPLPGPRP , report its shrunken log2 fold change.
Reply: 0.164

Ask: Using the record for RRIRTRPPRLPRPRPRPEIEPRP , report its shrunken log2 fold change.
Reply: -0.299

Ask: Using the record for RRIRMRPPRLPRPRPRPPQQPRP , report its shrunken log2 fold change.
Reply: 0.945

Ask: Using the record for RRIRFRPPRLPRPRPRPLNDPRP , report its shrunken log2 fold change.
Reply: -0.839

Ask: Using the record for RRIRLRPPRLPRPRPRPYSCPRP , report its shrunken log2 fold change.
Reply: -0.458

Ask: Using the record for RRIRLRPPRLPRPRPRPDRFPRP , report its shrunken log2 fold change.
Reply: -0.00452

Ask: Using the record for RRIRWRPPRLPRPRPRPLRSPRP , report its shrunken log2 fold change.
Reply: 0.884

Ask: Using the record for RRIRVRPPRLPRPRPRPKHEPRP , report its shrunken log2 fold change.
Reply: -0.0072
